Test system: HCC-2998 colon
method-description: NCI tumour cell line growth inhibition, 48 h
recorded-endpoint: TGI

* O=C(Nc1nccs1)NS(=O)(=O)n1cnc2ccccc21 | > 100 µM
* Nc1ncnc2c1cnn2COCC(O)CO (stereo not given) | > 100 µM
* COc1ccc2c(c1OC)C(C=C(c1ccccc1)c1ccccc1)CN(C)C2 (stereo not given) | 67.1 µM
* COc1ccc(C(=O)N(Cc2cccnc2)C(=S)N(Cc2cccnc2)C(=O)c2ccc(OC)cc2)cc1 | > 100 µM
* NC(N)=NC(N)=Nc1ccc(S(N)(=O)=O)cc1 | > 100 µM
* O=C1CN(c2ccccc2)C(=O)CN1CCN1CC(=O)N(c2ccccc2)CC1=O | > 100 µM
* COC(=O)[C@]1(Cc2ccc3ccccc3c2)CCCCCCN1C(=O)c1ccccc1 | > 49 µM
* CCOC(=O)C1=C(C)N(C2OC(COC(C)=O)C(OC(C)=O)C(OC(C)=O)C2OC(C)=O)C(=O)NC1c1ccccc1 (stereo not given) | > 100 µM
* Brc1ccc(C2CC3(c4ccccc4)ON=C(c4ccccc4)N3c3ccccc3S2)cc1 (stereo not given) | > 100 µM
* CN(C(=O)c1ccc(Cl)cc1)C(=S)N1CCN(c2ccccc2)CC1 | > 100 µM

###

Tested on: SNB-19 CNS
method-description: NCI tumour cell line growth inhibition, 48 h
recorded-endpoint: TGI

- Fc1ccc2c(c1)cc1ccc3cccc4ccc2c1c34: > 100 µM
- O=c1oc2ccccc2n1CCCn1c(=O)oc2ccccc21: > 100 µM
- Cc1cc(C)c(O)c(CNCCCNCc2cc(C)cc(C)c2O)c1: 15.1 µM
- COc1ccc(-c2c3c(nc4[nH]c(=S)[nH]c(=S)c24)CCCC3)cc1OC: > 100 µM
- CN(C)c1c(C2CC(O)C(CO)O2)c(=O)c1=O (stereo not drawn): > 100 µM
- C/C=C(\C)C(=O)N1c2ccccc2CC1c1c(C)[nH]c2ccccc12 (stereo not drawn): > 100 µM
- COc1ccc(OCC(C)(C)O)cc1: > 100 µM
- C[C@]12CC/C(=N\O)C=C1CC[C@@H]1[C@@H]2CC[C@]2(C)C(=N/O)/C(=C/c3ccncc3)C[C@@H]12: > 100 µM

###

Test system: CAKI-1 renal
method-description: NCI tumour cell line growth inhibition, 48 h
recorded-endpoint: TGI (µM)

• C#CCN(Cc1nc2cc(C(F)(F)F)ccc2nc1-c1ccccc1)c1ccc(F)cc1 = 92.2
• CC1(C)CC[C@]2(C(=O)O)CC[C@]3(C)C(=CC[C@@H]4[C@@]5(C)CC[C@H](OC6OC(CO)C(O)C(O)C6O)C(C)(C)[C@@H]5CC[C@]43C)[C@@H]2C1 (stereo not given in full) = 5.93
• CN1CCN(Cc2ccc(NC(=O)c3cccc(C#Cc4c(N)ncc5ccc(F)cc45)c3)cc2C(F)(F)F)CC1 = 1.43
• COc1cccc(NC(=O)c2ccc(NC3=C(Cl)C(=O)N(Cc4ccccc4)C3=O)cc2)c1 = 30.9
• CSS(C)(=O)=O = 43.2
• CCCCCCC/C=C1\CCC(CN(C)C)C1=O (stereo not given) = 31.6

###

A collection of compounds and their measured TGI
Tested on: SF-539 CNS
method-description: NCI tumour cell line growth inhibition, 48 h
recorded-endpoint: TGI

• O=c1oc2ccccc2n1CCCn1c(=O)oc2ccccc21 = > 100 µM
• C[C@H](C(O)CC(=O)C(C)(C)O)[C@H]1CC[C@@]2(C)[C@@H]3CC[C@H]4C(C)(C)[C@@H](OC5OC(COC6OC(CO)C(O)C(O)C6O)C(O)C(O)C5O)CC[C@]4(C)C3=CC[C@]12C (some centres not stated) = > 100 µM
• FC(F)(F)C1(c2ccccc2)SCc2nc3ccccc3n21 (configuration not stated) = > 100 µM
• CN=C(N)NC = > 100 µM
• CN[C@H]1CC[C@]23C[C@]24CC[C@]2(C)[C@@H]([C@H](C)N(C)C)CC[C@@]2(C)[C@@H]4CC[C@H]3C1(C)C = 26.7 µM
• COCC(=O)NC/C=C/c1ccc2ncnc(Nc3ccc(Oc4ccc(C)nc4)c(C)c3)c2c1 = 31.7 µM
• CC1(C)CN=C(Nc2ccc(F)c(Cl)c2)S1 = > 100 µM
• CCCCCCCCCCCCC(NC(C)=O)(C(=O)OCC)C(=O)OCC = 33.1 µM
• COC(=O)c1ccc(/C=C/S(=O)(=O)c2ccccc2)cc1 = > 100 µM
• C[C@]12CC/C(=N\O)C=C1CC[C@@H]1[C@@H]2CC[C@]2(C)C(=N/O)/C(=C/c3ccncc3)C[C@@H]12 = > 100 µM
• COc1ccc(OCC(C)(C)O)cc1 = > 100 µM
• CC1=CC(=O)/C(=C/N2C(=O)CNC2=S)C(=O)O1 = > 100 µM
• Brc1ccc(C2CC3(c4ccccc4)ON=C(c4ccccc4)N3c3ccccc3S2)cc1 (configuration not stated) = > 100 µM
• CC(C)(C)OC(=O)N1CCC(NC(=O)NC2CCN(C(=O)OC(C)(C)C)CC2)CC1 = > 100 µM
• O=C(O)CNC(=O)C1NC(C(F)(F)F)(C(F)(F)F)OC1(C(F)(F)F)C(F)(F)F (configuration not stated) = > 100 µM
• COc1ccccc1N1CCN(CCCOc2ccc(C(=O)/C=C3/C(=O)Nc4ccccc43)cc2)CC1 = 40.4 µM
• COC(=O)[C@]1(Cc2ccc3ccccc3c2)CCCCCCN1C(=O)c1ccccc1 = > 54.1 µM
• COc1ccc2c(c1)OC1c3ccccc3OCC21 (configuration not stated) = > 100 µM
• O=C1c2ccccc2-c2c1c1ccc([N+](=O)[O-])cc1c(=O)n2CCCn1ccnc1 = 0.0838 µM
• CCCCCCC(=O)c1ccc2ccccc2c1O = > 100 µM
• Cn1cc2ccccc2c1-c1nc(F)nc(Nc2ccc(N)cc2)n1 = 35.1 µM
• NC(Cc1ccc(O)cn1)C(=O)O (configuration not stated) = > 100 µM

###

System: A549 NSCLC
method-description: NCI tumour cell line growth inhibition, 48 h
Where a SMILES comes first, the peptide text is derived from it. [ ]: non-standard residue; d: D form. The star is where a group is joined. ξ: configuration not given here. ξPhe(4-NO2) = NC(Cc1ccc([N+](=O)[O-])cc1)C(=O)O; Boc = CC(C)(C)OC(=O)*
Answer label 0 if TGI is under 30 µM, and label 1 if it is 30 µM or more.

• OC1(C2(c3ccc(Cl)cc3)CCCC2)c2ccccc2C2=NCCN21 (centres undefined) = label 1
• O=C1c2cc([N+](=O)[O-])sc2C(=O)c2cc([N+](=O)[O-])sc21 = label 1
• Cc1c(C#N)c(N)n(C2OC(CO)C(O)C(O)C2O)c(=S)c1C#N (centres undefined) = label 1
• Clc1nc(-c2ccccc2)nc(Cl)c1Cl = label 1
• CC(=O)OCCCCn1cnc2c(Cl)nc(Nc3ccccc3)nc21 = label 1
• CNC(=S)N(C1CCCCC1)C1CCCCC1 = label 1
• COc1ccc(-c2cc(-c3ccc(Cl)cc3)nc(SCCCCCCC(=O)NO)n2)cc1 = label 0
• CCNC(=O)CNC(=O)C(Cc1ccc([N+](=O)[O-])cc1)NC(=O)OC(C)(C)C (centres undefined) (Boc-[ξPhe(4-NO2)]-Gly-NHEt) = label 1
• O=C(NNC(=O)c1c(Cl)c(Cl)c(Cl)c(Cl)c1-c1nc2ccccc2[nH]1)c1ccc(Cl)cc1 = label 1
• COc1ccc2c(c1)C=C(C(C)(C)C)NS2(=O)=O = label 1
• CN(C(=O)c1ccc(Cl)cc1)C(=S)N1CCN(c2ccccc2)CC1 = label 1
• O=C1CN(c2ccccc2)C(=O)CN1CCN1CC(=O)N(c2ccccc2)CC1=O = label 1
• CC(C)c1cc(C(=O)[O-])c(O)c(C(C)C)c1.CC(C)c1cc(C(=O)[O-])c(O)c(C(C)C)c1.CC(C)c1cc(C(=O)[O-])c(O)c(C(C)C)c1.CC(C)c1cc(C(=O)[O-])c(O)c(C(C)C)c1.CC(C)c1cc(C(=O)[O-])c(O)c(C(C)C)c1.CC(C)c1cc(C(=O)[O-])c(O)c(C(C)C)c1.[Cu+2].[Mn+2].[Mn+2] = label 1
• CC(C)C[C@H](NC(=O)CCc1cccc2ccccc12)B(O)O = label 1
• N.N.NCCCCCN.O=C([O-])CC(=O)[O-].O=C([O-])CC(=O)[O-].[Pt+4].[Pt+4] = label 1
• COc1ccc(C[C@H]2NC[C@H](O)[C@H]2OC(C)=O)cc1 = label 0
• Cc1nc(-n2nc(-c3ccccc3)cc2-c2ccccc2)sc1C(=O)/C=C/c1ccc(Cl)cc1 = label 1
• CCCCCCCCCC[N+](C)(C)C = label 0
